List of thermal shift delta Tm values.
Tested on: LOC_OS01G57100-cb003
assay.summary: thermal shift delta Tm vs DMSO control; higher = stronger stabilization (binding);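 further: purified Escherichia coli-expressed rice kinase domain construct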
test.parameters: 12.5 µM; protein concentration 2 µM
Numbers only; they are read as °C.

Sample records with thermal shift delta Tm:
{"compound.string": "C[C@H]1CNC(=O)c2cnn3ccc(nc23)N[C@H](C)c2cc(F)ccc2O1", "measure.name": "thermal shift delta Tm", "unit.of.measure": "°C", "reading": 0.38}
{"compound.string": "CC[C@@H](N)CNc1ccnc(-c2cc(-c3cnn(C)c3)ccc2O)n1", "measure.name": "thermal shift delta Tm", "unit.of.measure": "°C", "reading": 0.71}
{"compound.string": "Cc1ccc(CNc2ncnc3ccc(-c4ccc(CO)o4)cc23)o1", "measure.name": "thermal shift delta Tm", "unit.of.measure": "°C", "reading": 1.69}

// moving on: another record for thermal shift delta Tm
get_value(item= O=C1CCc2c(Oc3ccc4c(c3)[C@@H]3[C@H](O4)[C@H]3c3nc4cc(C(F)(F)F)ccc4[nH]3)ccnc2N1 , readout=thermal shift delta Tm) returns 2.04

---

List of thermal shift delta Tm values.
System: LOC_OS01G70970-cb002
assay.summary: thermal shift delta Tm vs DMSO control; higher = stronger stabilization (binding)
test.parameters: 12.5 µM; protein concentration 2 µM

{"compound": "O=C(/C=C/c1ccc(O)c(O)c1)c1ccc(O)cc1O [Butein]", "thermal shift delta Tm": "2.95 °C"}

Noted thermal shift delta Tm for CC(C)n1nc(-c2ccc3oc(N)nc3c2)c2c(N)ncnc21 , tested on LOC_OS01G70970-cb002: 0.54 °C

Noted thermal shift delta Tm for C=CC(=O)N1CCN(CCCn2c(=O)c(-c3c(Cl)c(OC)cc(OC)c3Cl)cc3cnc(NC)nc32)CC1 , tested on LOC_OS01G70970-cb002: 0.17 °C

---

System: LOC_OS01G13800-cb001
assay.summary: thermal shift delta Tm vs DMSO control; higher = stronger stabilization (binding)
test.parameters: 12.5 µM; protein concentration 2 µM
measure.name: thermal shift delta Tm
Please answer using the number first and the unit second.

Sample records with thermal shift delta Tm:
{"molecule": "CC1(C)CNc2cc(NC(=O)c3cccnc3NCc3ccncc3)ccc21 [Motesanib Diphosphate (AMG-706)]", "thermal shift delta Tm": "0.38 °C"}
{"molecule": "Cc1cc(CN2CCN(c3c(Br)cnc4nc(-c5ccc(N6CCN(C)CC6)cc5)[nH]c34)CC2)no1", "thermal shift delta Tm": "0.82 °C"}
{"molecule": "COc1cc(Nc2c(C#N)cnc3cc(OCCCN4CCN(C)CC4)c(OC)cc23)c(Cl)cc1Cl [Bosutinib (SKI-606)]", "thermal shift delta Tm": "0.52 °C"}
{"molecule": "CCCCCCCCCCCCCCCCOP(=O)([O-])OCC[N+](C)(C)C [Miltefosine]", "thermal shift delta Tm": "-7.38 °C"}
{"molecule": "Cc1nc(Nc2cnn(C3CCNCC3)c2)nc2c1N(C)C(=O)c1cc3ccccc3cc1N2C", "thermal shift delta Tm": "0.39 °C"}

// moving on: another record for thermal shift delta Tm
Noted thermal shift delta Tm for Cc1ccccc1CN1C2=NCCN2C(=O)C2=C1CCN(Cc1ccccc1)C2 [TIC10 Analogue] , tested on LOC_OS01G13800-cb001: -0.07 °C
